- testTarget: Histone deacetylase 3 (Homo sapiens, UniProt O15379)
- Sequence (O15379 whole entry): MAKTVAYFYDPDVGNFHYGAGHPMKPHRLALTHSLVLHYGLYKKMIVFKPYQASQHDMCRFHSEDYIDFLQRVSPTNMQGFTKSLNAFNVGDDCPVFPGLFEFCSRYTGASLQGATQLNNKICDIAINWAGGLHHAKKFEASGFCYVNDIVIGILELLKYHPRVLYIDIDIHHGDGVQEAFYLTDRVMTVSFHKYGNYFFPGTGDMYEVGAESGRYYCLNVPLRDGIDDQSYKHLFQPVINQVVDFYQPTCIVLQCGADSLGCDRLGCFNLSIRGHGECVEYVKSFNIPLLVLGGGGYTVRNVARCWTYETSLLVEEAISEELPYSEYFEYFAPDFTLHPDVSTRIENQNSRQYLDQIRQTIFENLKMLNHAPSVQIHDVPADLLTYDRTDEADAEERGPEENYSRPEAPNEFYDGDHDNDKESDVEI
- procedureSummary: Inhibition of human recombinant HDAC3 expressed in Sf21 insect cells using Ac-NH-GGK(Ac)-AMC as substrate after 180 mins by fluorescence assay
pIC50: −log10 of the molar value.
resultType: pIC50

Completed entries (count: 4):
{"moleculeSmiles": "C#Cc1cccc(Nc2ncnc3ccc(OCc4ccc(C(=O)Nc5ccccc5N)cc4)cc23)c1", "resultType": "pIC50", "endpointValue": 6.26}
{"moleculeSmiles": "C#Cc1cccc(Nc2ncnc3ccc(NC(=O)c4ccc(C(=O)Nc5ccccc5N)s4)cc23)c1", "resultType": "pIC50", "endpointValue": 6.04}
{"moleculeSmiles": "C#Cc1cccc(Nc2ncnc3ccc(NC(=O)c4ccc(C(=O)Nc5ccccc5N)nc4)cc23)c1", "resultType": "pIC50", "endpointValue": 6.36}
{"moleculeSmiles": "C#Cc1cccc(Nc2ncnc3cc(NC(=O)c4ccc(C(=O)Nc5ccccc5N)s4)ccc23)c1", "resultType": "pIC50", "endpointValue": 6.11}

I = C#Cc1cccc(Nc2ncnc3ccc(NC(=O)c4ccc(C(=O)Nc5ccccc5N)cc4)cc23)c1
II = C#Cc1cccc(Nc2ncnc3ccc(S(=O)(=O)n4ccc(/C=C/C(=O)NO)c4)cc23)c1
III = C#Cc1cccc(Nc2ncnc3cc(NC(=O)c4ccc(C(=O)Nc5ccccc5N)nc4)ccc23)c1
## Input Output the entries ranked by pIC50 from maximum down to minimum. Provide the labels, sequenced as the question asks.
## Output II, III, I
